- assayedTarget: HLA-A24.02
- assaySummary: Class I MHC peptide binding affinity (displacement of radiolabeled reference peptide)
- Design: species or system human
- assayContext: allele A24.02; read-out: Observed Affinity (IC50; (nM))
Where a SMILES comes first, the peptide text is derived from it.
# log10 IC50 listing for each entry below
Values below are the log10 of the recorded IC50, with nM as the unit.

Measured log10 IC50, CSCC[C@H](NC(=O)[C@H](CC(C)C)NC(=O)[C@H](CO)NC(=O)[C@H](CC(C)C)NC(=O)[C@@H]1CCCN1C(=O)[C@H](CCC(N)=O)NC(=O)[C@H](CCSC)NC(=O)[C@H](CCC(N)=O)NC(=O)[C@@H](N)Cc1ccccc1)C(=O)O : 4.16

Measured log10 IC50, CC[C@H](C)[C@H](N)C(=O)N[C@@H](CCSC)C(=O)N[C@@H](CCC(N)=O)C(=O)N[C@@H](CC(C)C)C(=O)N[C@@H](CCSC)C(=O)N1CCC[C@H]1C(=O)N[C@@H](Cc1ccccc1)C(=O)NCC(=O)N[C@@H](CS)C(=O)N[C@@H](CC(C)C)C(=O)O : 4.26

Measured log10 IC50, CC[C@H](C)[C@H](NC(=O)[C@H](CC(=O)O)NC(=O)[C@H](Cc1ccccc1)NC(=O)[C@H](CC(C)C)NC(=O)[C@@H](NC(=O)[C@H](CCC(=O)O)NC(=O)[C@@H](NC(=O)[C@H](CCSC)NC(=O)[C@@H](N)Cc1c[nH]c2ccccc12)[C@@H](C)O)[C@@H](C)O)C(=O)O (H-WMTETLFDI-OH; N-terminus and C-terminus assumed) : 2.85

Measured log10 IC50, CC(C)C[C@H](NC(=O)[C@H](CS)NC(=O)[C@H](CO)NC(=O)[C@H](Cc1ccccc1)NC(=O)[C@H](CC(C)C)NC(=O)[C@H](CCCCN)NC(=O)[C@H](Cc1ccccc1)NC(=O)CN)C(=O)N[C@@H](CO)C(=O)N[C@@H](Cc1ccccc1)C(=O)O (H-GFKLFSCLSF-OH; N-terminus and C-terminus assumed) : 2.81

Measured log10 IC50, CC(C)C[C@H](NC(=O)[C@H](CO)NC(=O)[C@H](CCCCN)NC(=O)[C@H](CC(C)C)NC(=O)[C@@H](NC(=O)[C@H](CO)NC(=O)[C@@H]1CCCN1C(=O)[C@H](CC(C)C)NC(=O)[C@@H](N)Cc1ccccc1)[C@@H](C)O)C(=O)O : 3.00

Measured log10 IC50, CC[C@H](C)[C@H](NC(=O)[C@H](CC(C)C)NC(=O)[C@H](CCC(N)=O)NC(=O)[C@@H](N)C(C)C)C(=O)N[C@@H](CCSC)C(=O)N[C@@H](CCC(N)=O)C(=O)N[C@@H](CC(C)C)C(=O)N[C@@H](CCSC)C(=O)N1CCC[C@H]1C(=O)N[C@@H](Cc1ccccc1)C(=O)O : 3.66

Measured log10 IC50, CC[C@H](C)[C@H](NC(=O)[C@H](Cc1ccc(O)cc1)NC(=O)[C@H](CC(C)C)NC(=O)[C@@H](N)CC(C)C)C(=O)N[C@H](C(=O)N[C@@H](C)C(=O)N[C@@H](Cc1ccccc1)C(=O)N[C@@H](Cc1ccccc1)C(=O)N[C@@H](CC(C)C)C(=O)N[C@@H](CC(C)C)C(=O)O)[C@@H](C)O (H-LLYITAFFLL-OH; N-terminus and C-terminus assumed) : 1.78

Provenance of the data: patent US20220282217A1
